# Tested on: Salmonella Typhimurium TA1537
# Assay protocol: bacterial mutagenicity, strain TA1537
# Assay type: cell-based
# Parameters: key: +: Positive Response; -: Negative Response; w+: Weak Positive Response
# Measurement context: with metabolic activation

# Molecule, Mutagenicity TA1537
rows = [
    ("O=C(CN1CCN(c2ccc(CO)c(Cl)c2)CC1)c1ccc(Cl)c(Cl)c1Cl", "w+"),
    ("O=C(CCN1CCN(c2ccc(CO)c(Cl)c2)CC1)c1ccc(Cl)cc1", "-"),
    ("CCN(CC)CCNc1ccc(CO)c2sc3ccccc3c(=O)c12 [Hycanthone, reference compound]", "+"),
    ("O=C(CN1CCN(c2ccc(CO)c(Cl)c2)CC1)c1cc2ccccc2o1", "-"),
]
